Hi there, I'd appreciate the recorded GLC for every entry that follows.
- Species: Rattus norvegicus
- test_method_notes: Open TG-GATES - Regimen: Single
- Format: toxicity, organism-based, Sprague-Dawley
- Parameters: regimen Single, gender Male, age 6 weeks
- details: in vivo, po, 300 mg/kg, 9 h, tissue Plasma, route gavage, dose level Middle
Give bare numbers, in mg/dL.

Worked examples, 3 compounds total:
- compound: "COc1ccc2[nH]c([S+]([O-])Cc3ncc(C)c(OC)c3C)nc2c1 (centres undefined) [OMEPRAZOLE]"
  GLC / mg/dL: 195.4
- compound: "COC1=CC(=O)C[C@@H](C)[C@]12Oc1c(Cl)c(OC)cc(OC)c1C2=O [GRISEOFULVIN]"
  GLC / mg/dL: 200.2
- compound: "NC(N)=Nc1nc(CSCCC(N)=NS(N)(=O)=O)cs1 [FAMOTIDINE]"
  GLC / mg/dL: 195.2

Consider now this further compound.
Query: Data request, read-out GLC, for CCOC(=O)CCC(=O)O[C@H]1[C@H](O[C@@H]2[C@@H](C)[C@H](O[C@H]3C[C@@](C)(OC)[C@@H](O)[C@H](C)O3)[C@@H](C)C(=O)O[C@H](CC)[C@@](C)(O)[C@H](O)[C@@H](C)C(=O)[C@H](C)C[C@@]2(C)O)O[C@H](C)C[C@@H]1N(C)C [ERYTHROMYCIN ETHYLSUCCINATE]
Response: 174.4
